Assay: Bioavailability in mice
Type: in vivo
Conditions: mouse, plasma; male Balb/c mice, PO 30 mg/kg vs IV 10 mg/kg
EXPERIMENTAL_ENDPOINT: bioavailability (%)
A number alone suffices; assume %.

In: Give me measured bioavailability, please, for this compound: `O=C(NCc1coc2c(Cl)c(Cl)ccc12)Nc1ncc(C(F)(F)F)s1`
Out: 34
